src = ChEMBL document CHEMBL1201862

Tested on: HT-29
Test: NCI tumour cell line growth inhibition, 48 h
The source made the active and inactive calls. Rule as the data show it: active = GI50 up to about 1.1 µM and inactive = higher.
READOUT KIND: GI50

Past entries and their recorded results:
COMPOUND	GI50
CC(=O)OC1COC(n2c(=S)n(-c3ccccc3)c(=O)c3ccccc32)C(OC(C)=O)C1OC(C)=O (centres undefined)	85.3 µM (inactive)
COc1cc[n+](C)cc1	> 100 µM (inactive)
O=C(/C=C/c1c(O)ccc2ccccc12)c1ccc2ccccc2c1	> 100 µM (inactive)
CCOC(=O)c1nnn(CCCCO)c1C(=O)OCC	> 100 µM (inactive)
COc1cc(C2[C@H]3C(=O)N(c4ccc(Cc5ccc(N6C(=O)[C@@H]7ON(c8ccccc8)C(c8cc(OC)c(OC)c(OC)c8)[C@@H]7C6=O)cc5)cc4)C(=O)[C@H]3ON2c2ccccc2)cc(OC)c1OC (some centres undefined)	> 100 µM (inactive)
COc1cccc(C2c3cc4c(cc3OC(Nc3ccccc3)C2C)OCO4)c1O (centres undefined)	5.74 µM (inactive)
CC(C)CCCC(C)[C@H]1CC[C@H]2n3c(nnc3-c3ccccc3)CCC[C@]12C (some centres undefined)	17.5 µM (inactive)
Cc1ccc(C)c(NC(=O)CC2SC(Nc3ccccc3Cl)=NC2=O)c1 (centres undefined)	> 100 µM (inactive)

Now take the following compound into account.
### Prompt Field request: GI50 | item: CC(=O)OCC(Br)C1(C)CCC(C(C)(C)Br)O1 (centres undefined)
### Response 62.7 µM (inactive)

----------
Tested on: SK-MEL-5
Assay: NCI tumour cell line growth inhibition, 48 h
Active and inactive are the calls of the source. Rule as the data show it: active = GI50 up to about 1.1 µM and inactive = higher.
READOUT KIND: GI50

COMPOUND	RESULT
CC(C)CCC[C@@H](C)[C@H]1CC[C@H]2[C@@H]3CC[C@H]4C[C@H](N)CC[C@]4(C)[C@H]3CC[C@]12C	21.5 µM (inactive)
COc1cccc(C2c3cc4c(cc3OC(Nc3ccccc3)C2C)OCO4)c1O (stereo not drawn)	5.12 µM (inactive)
COc1cccc(-c2cc(=O)c3cc(C)c(C)c(C(=O)O)c3o2)c1	> 100 µM (inactive)
O=[N+]([O-])/C=C/c1ccc(Cl)cc1Cl	15.6 µM (inactive)
O=C(N/C(=C\c1cccc([N+](=O)[O-])c1)c1nc2cc([N+](=O)[O-])ccc2[nH]1)c1ccccc1	20.7 µM (inactive)

### Prompt Suppose we examine the compound Cc1ccc2c(c1)C(C(=O)N[C@@H]1C(=O)N3[C@@H]1SC(C)(C)[C@@H]3C(=O)O)OCCC2 (stereo partly drawn) ; what GI50 value has been reported?
### Response > 100 µM (inactive)

### Prompt Thanks! And Cc1cc(S(N)(=O)=O)c(S/C(=N\Nc2ccc([N+](=O)[O-])cc2)c2ccc(Cl)cc2)cc1Cl ?
### Response 3.48 µM (inactive)

### Prompt CC1=C(C)C(=O)OC(C(C)(O)C2(O)CC3OC34C3CC(O)C56OC5C=CC(=O)C6(C)C3CCC42C)C1 (stereo not drawn) ?
### Response 1.67 µM (inactive)

----------
Tested on: K562
Assay: NCI tumour cell line growth inhibition, 48 h
Active and inactive are the calls of the source. No stated cut-off is given here; in the data, active = GI50 up to about 1.1 µM and inactive = higher.
Overview of recorded GI50 for various compounds

Examples with their reported GI50 follow.
COMPOUND	GI50
Fc1ccc2c3c([nH]c2c1)CCN(Cc1ccccc1)C3	18.1 µM (inactive)
Cc1cnc[nH]c1=O	> 100 µM (inactive)
CCN(CC)c1ccc2c(c1)N=C1N=CC=CN1C2(c1ccc(N(C)C)cc1)c1ccc(N(C)C)cc1	2.3 µM (inactive)
COCO[C@@H]1C[C@H]2C(O)Nc3ccccc3C(=O)N2C1 (stereo not given in full)	> 100 µM (inactive)

# evaluate next
### Prompt What measured GI50 goes with O=C(N/N=C(COc1ccc(Cl)cc1)\N=C\c1cccnc1)c1ccncc1 ?
### Response 64.4 µM (inactive)
